These entries and their values trace back to PubChem BioAssay AID330.

Tested on: P388 leukemia ip, CD2F1 mice, survival T/C
Test: NCI In Vivo Anticancer Drug Screen. Data for tumor model P388 Leukemia (intraperitoneal) in CD2F1 (CDF1) mice
Conditions: endpoint: median survival time; dose: 200.0 mg/kg/injection; schedule: Q01DX009 (ip); vehicle: saline; higher = longer survival
Toxic doses and inconclusive results are not listed.
Recorded endpoint: T/C

Fill in: T/C of Cn1c(CC(O)c2nc3ccccc3n2C)nc2ccccc21 (stereo not drawn) is ___
107 % of control

* * *

System: P388 leukemia ip, CD2F1 mice, survival T/C
Assay: NCI In Vivo Anticancer Drug Screen. Data for tumor model P388 Leukemia (intraperitoneal) in CD2F1 (CDF1) mice
Details: endpoint: median survival time; dose: 100.0 mg/kg/injection; schedule: Q01DX001 (ip); vehicle: saline; higher = longer survival
Method: The antitumor activity of compounds was measured in mice bearing transplantable tumors. Survival or tumor size were measured and the results are expressed as the measurement made in the treated group (T) divided by the measurement made in the vehicle treated control group (C). The tumor model used in this assay is P388 Leukemia (intraperitoneal) in CD2F1 (CDF1) mice
Inconclusive results and toxic doses are left out.
Listed here are compounds together with their documented T/C.

Hi! What's the reported T/C for CC(=O)Oc1ccc2c(c1)C(=O)CCCCCCC(=O)O2 on P388 leukemia ip, CD2F1 mice, survival T/C?
101 % of control

* * *

Tested on: P388 leukemia ip, CD2F1 mice, survival T/C
Assay: NCI In Vivo Anticancer Drug Screen. Data for tumor model P388 Leukemia (intraperitoneal) in CD2F1 (CDF1) mice
Conditions: endpoint: median survival time; dose: 120.0 mg/kg/injection; schedule: Q01DX005 (ip); vehicle: Klucel (hydroxypropylcellulose) (HPC); higher = longer survival
Toxic doses and inconclusive results are not listed.
Recorded endpoint: T/C

* CC1CS(=O)(=O)O1 (centres undefined) | 103 % of control
* COc1ccc(C2OC3=Nc4ccccc4NC3C2=O)cc1OC (centres undefined) | 105 % of control

Fill in: T/C of CC(/C=C/c1cccc(C)c1)=N\NC(N)=O is ___
104 % of control

Continue with O=C(NC1COB(c2ccc(Br)cc2)OC1c1ccc([N+](=O)[O-])cc1)C(Cl)Cl (centres undefined)
102 % of control

* * *

Test system: P388 leukemia ip, CD2F1 mice, survival T/C
Experiment: NCI In Vivo Anticancer Drug Screen. Data for tumor model P388 Leukemia (intraperitoneal) in CD2F1 (CDF1) mice
Conditions: endpoint: median survival time; dose: 60.0 mg/kg/injection; schedule: Q01DX005 (ip); vehicle: saline with Tween-80; higher = longer survival
Inconclusive results and toxic doses are left out.
Recorded endpoint: T/C

- COC(=O)/C=c1/s/c(=C\C(C)=N)[nH]c1=O: 90 % of control
- COc1ccc(N2C(=O)C(C)SC23C(=O)Nc2ccc(C)cc23)cc1 (configuration not stated): 109 % of control
- O=P(OCCCl)(OCCCl)C(Nc1cccc2ccccc12)c1ccc(N(CCCl)CCCl)cc1 (configuration not stated): 98 % of control
- OCc1sccc1-n1cccc1: 104 % of control
- CN1CCOP(=O)(c2ccccc2)N1 (configuration not stated): 99 % of control

Hi! What's the reported T/C for CCSc1nnc(C2CCC(=O)N2Cc2ccccc2)o1 (configuration not stated) on P388 leukemia ip, CD2F1 mice, survival T/C?
94 % of control

Continue with CC(C)CC(Nc1nncs1)Nc1nncs1
96 % of control

Continue with COc1ccc2c(-c3ccc(O)cc3)c(-c3ccccc3)c(=O)oc2c1
86 % of control

Continue with OCCN1CCN(Cc2cc(Cl)cc(CN3CCN(CCO)CC3)c2O)CC1
100 % of control

Continue with Nc1nnc(CCCCCCCc2nnc(N)o2)o1
104 % of control

Continue with O=c1[nH]c2cc(Cl)ccc2nc1C1=C(O)c2ccccc2C1
89 % of control

Continue with O=C(CCCCCCCC(=O)NO)NO
95 % of control
